// data source = PubChem BioAssay (NCI)

Tested on: KM12 colon
assay procedure: NCI-60 one-dose screen, 48 h
condition context: 10 µM unless noted
Compounds without any hit were thinned out: in the full panel of roughly 83,000, 20% have a hit. The source made the active and inactive calls. How the source made its calls: active means growth percent below 10; inactive means the rest.
Reply using exactly one outcome from active, inactive

| compound | category label |
| --- | --- |
| N#CC1=C(c2ccc(Br)cc2)NC(SCC(=O)c2ccc(Br)cc2)NC1=O (stereo not given) | inactive |

stdin: // param item: COc1ccc(CNC(=O)C(O)C(Cc2ccccc2)NC(=O)c2[nH]c3ccccc3c(=O)c2C)cc1OC (stereo not given) ; yields the recorded call
stdout: inactive

stdin: // param item: C=CCSc1nc2ccccc2cc1/C=N/O ; yields the recorded call
stdout: inactive

stdin: // param item: CCCCCCCCCCCC(c1ccccc1)[N+](C)(C)C (stereo not given) ; yields the recorded call
stdout: active

stdin: Hi, do you know how CC1(c2ccccc2)NC(=O)N(NC(=O)CSc2nc(-c3cccs3)nc3ccccc23)C1=O (stereo not given) came out in this test?
stdout: inactive

* * *

System: OVCAR-5 ovarian
assay procedure: NCI-60 one-dose screen, 48 h
condition context: 10 µM unless noted
Compounds without any hit were thinned out: in the full panel of roughly 83,000, 20% have a hit. Active and inactive are the calls of the source. Rule for the calls: active = growth percent below 10; inactive = the rest.
// allowed return values: YES = active, NO = inactive

Solved entries (count: 5):
| molecule | category label |
| --- | --- |
| C[n+]1cc2cc(C(N)=O)[nH]c3c(=N)c(Cl)c(N)c1c23 | NO |
| COc1cccc(-c2nn(-c3ccccc3)cc2-c2ccnc(NCCNC(=O)Nc3cccc(C(F)(F)F)c3)c2)c1 | NO |
| Clc1ccc(-c2c3ccc(=[N+]4CCCCC4)cc-3oc3cc(N4CCCCC4)ccc23)cc1 | YES |
| CCOC(=O)c1c2c(n3ccc(NC(=O)OC(C)(C)C)cc13)C(=O)c1ncccc1C2=O | YES |
| c1cc2ccc3cc2cc1CNCCOCCNCc1ccc2ccc(cc2c1)CNCCOCCNC3 | YES |

stdin: Entry CCc1ccccc1-n1c(-c2ccc(Cl)cc2)cc(-c2ccc(OC)cc2)c(C#N)c1=O : call = ?
stdout: NO

stdin: Please indicate how the test categorized S=C(Cc1ccc2c(c1)CCCC2)N1CCOCC1 .
stdout: NO

stdin: Give the logged outcome of this assay for the following molecule: Cn1c(-c2c(N)n(Cc3cccnc3)c3nc(C#N)c(C#N)nc23)nc2ccccc21
stdout: NO

stdin: Please share the test call associated with CCN(CC)c1nc(SCC(=O)Nc2nc3ccc(C)cc3s2)nc(-c2ccccc2)c1C#N .
stdout: NO

stdin: In this assay, the call recorded for COc1ccc(-c2nc3c(c(=O)n2C(C)=O)C(c2ccc(Cl)cc2)c2sc4c(Cl)cccc4c2O3)cc1 (stereo not given) was what?
stdout: YES

* * *

Tested on: RXF 393 renal
assay procedure: NCI-60 one-dose screen, 48 h (100 = growth as untreated, 0 = no growth, -100 = all killed)
condition context: 10 µM unless noted
About 83,000 compounds went through this panel and 20% of them were active in at least one assay; those are over-represented in the sample as a whole.
# growth annotations
Unit % implied. Number only.

Examples with their reported growth follow.
| compound | growth / % |
| --- | --- |
| O=C(N=c1oc2ccccc2cc1-c1cc2ccccc2[nH]1)c1ccc(Cl)cc1 | 59.9 |
| O=C(Nc1cccc(C(F)(F)F)c1)Nc1cccc(C(F)(F)F)c1 | 22.7 |

stdin: Could you tell me which growth is on file for CCCCN(CCCC)CC(C)(C)C(O)c1ccc(OC)c2ccccc12 (configuration not stated) ?
stdout: 65

stdin: Endpoint output: growth of N#Cc1c2c(nn(-c3ccccc3)c1=O)C(O)=C([N+](=O)[O-])C(c1ccccc1)C2 (configuration not stated) . Value?
stdout: 49.7

* * *

System: MDA-MB-435 melanoma
assay procedure: NCI-60 one-dose screen, 48 h
condition context: 10 µM unless noted
About 83,000 compounds went through this panel and 20% of them were active in at least one assay; those are over-represented in the sample as a whole. The source made the active and inactive calls. The calls were made as follows: active = growth percent below 10; inactive = the rest.
Would you mind answering with one of these outcomes? active, inactive

stdin: Tell me the assay call for O=C(Nc1ccc(Nc2ccncc2)cc1)c1ccc(C(=O)Nc2ccc(Nc3ccncc3)cc2)cc1 please.
stdout: inactive

stdin: Status in this test for O=C(O)C1CCC(=O)N1C(=O)OCc1ccccc1 (stereo not drawn) ?
stdout: inactive

stdin: Would you mind telling me which call this test gave COc1cc(C2CC(=O)Nc3c2c(C)nn3-c2nc3ccccc3[nH]2)c(OC)c(OC)c1OC (stereo not drawn) ?
stdout: active

stdin: What was the test verdict on CCCCNC(=O)Oc1ccc2c(=O)c3sc4c(=O)c5ccccc5c(=O)c4c3c(=O)c2c1 ?
stdout: active

stdin: How was COc1nc(N(C)O)nc(N(C)O)n1 classified in this test?
stdout: inactive

stdin: How was Cc1ccc2nc3ccccc3c(NCc3ccccc3)c2c1 classified in this test?
stdout: inactive

stdin: Given N#C/C(=C\c1ccc2c(c1)OCO2)n1nnc2cc(F)c(F)cc21 , state the outcome it received in this test.
stdout: active

* * *

Tested on: MCF7 breast
assay procedure: NCI-60 one-dose screen, 48 h
condition context: 10 µM unless noted
Experimental: Growth inhibition of the MCF7 human tumor cell line is measured as a screen for anti-cancer activity. Cells are grown in 96 well plates and exposed to the test compound for 48 hours. Compounds are tested at a single concentration, which is 10^-5 M for most compounds. The reported endpoint is percent growth (GI% or GIPRCNT), where numbers from 0 - 100% represent growth inhibition, and numbers from -100% - 0 represent cell death. For example, a value of 40 represents 60% growth inhibition. […]
Compounds without any hit were thinned out: in the full panel of roughly 83,000, 20% have a hit. The source made the active and inactive calls. Rule for the calls: active = growth percent below 10; inactive = the rest.
Please state which outcome applies, choosing from true (1) = active, false (0) = inactive

Below, 6 molecules whose answers are already recorded.
| molecule | assayed target | category label |
| --- | --- | --- |
| O=C(Nc1cccc(Oc2nnc(Cl)c3ccccc23)c1)Nc1ccc(Cl)c(C(F)(F)F)c1 | MCF7 breast | true (1) |
| COc1cc(C2CC(=O)Nc3c2c(C)nn3-c2nc3ccccc3[nH]2)cc2c1OCC(=O)N2 (stereo unspecified) | MCF7 breast | false (0) |
| C=CC(=O)Nc1cccc(Oc2nccc(Nc3nnc(C4CC4)s3)n2)c1 | MCF7 breast | false (0) |
| Cc1cc(Cl)ccc1Nc1nc(C(F)(F)F)ccc1C(=O)N/N=C/c1ccc(N(C)C)cc1 | MCF7 breast | false (0) |
| Cn1c(I)c(C#C[Si](C)(C)C)c(=O)n(C(=O)c2ccccc2)c1=O | MCF7 breast | true (1) |
| COc1nc(N(C)O)nc(N(C)O)n1 | MCF7 breast | false (0) |

stdin: How was O=c1c2cc(F)ccc2sc2c(NCCCN3CCCC3)nc3ccccc3c12 classified in this test?
stdout: true (1)

stdin: # fetch the recorded call for O=C1CC(N2C(=O)/C(=C/C(Cl)=C\c3ccc([N+](=O)[O-])cc3)SC2=S)C(=O)N1c1ccc(O)cc1 (stereo unspecified) here
stdout: true (1)

stdin: Query: recorded result category for Cc1cc(NCc2cc(Nc3ccnc4cc(Cl)ccc34)ccc2F)nc(N2CCSCC2)n1 in this test
stdout: true (1)

* * *

Test system: HCT-116 colon
assay procedure: NCI-60 one-dose screen, 48 h
condition context: 10 µM unless noted
Method: Growth inhibition of the HCT-116 human tumor cell line is measured as a screen for anti-cancer activity. Cells are grown in 96 well plates and exposed to the test compound for 48 hours. Compounds are tested at a single concentration, which is 10^-5 M for most compounds. The reported endpoint is percent growth (GI% or GIPRCNT), where numbers from 0 - 100% represent growth inhibition, and numbers from -100% - 0 represent cell death. For example, a value of 40 represents 60% growth inhibition. […]
The panel holds about 83,000 compounds, 20% with a hit somewhere; the sample as a whole holds those more often. Calls of active or inactive are those of the source. Rule for the calls: active = growth percent below 10; inactive = the rest.
One label from this list, please: label 1 = active, label 0 = inactive

| compound | category label |
| --- | --- |
| CN(C)CCNc1nc2ccccc2c2c1c1c(n2Cc2ccccc2)-c2ccccc2C1=O | label 1 |
| Cc1c2c(c(C)c3c1oc1cc(O)ccc13)C(=O)N(CCN1CCCCC1)C2=O | label 0 |
| COc1cc(-c2nc(N3CCN(C)CC3)c3ccccc3n2)cc(OC)c1OC | label 0 |
| COc1ccc(NC(=O)CSc2nc(C)c(C(C)=O)n2-c2ccc(Cl)cc2)cc1 | label 0 |
| NC(=O)c1ccc[n+](Cc2ccc(Cl)cc2Cl)c1 | label 0 |

stdin: For Cc1ccc(C(=NN=C(N)N)c2ccc(C)cc2)cc1 , which call appears in the assay record?
stdout: label 1

stdin: How did this test come out for O=C1/C(=C/c2ccc(Br)cc2)C=C(c2ccccc2)N1CCc1ccccc1 ?
stdout: label 0

stdin: GET /call?item= COc1ccc(C2CC(c3cccc(OC)c3)=NN2C(=O)c2cc(OC)c(OC)c(OC)c2)cc1 (centres undefined) returns the recorded outcome of this test.
stdout: label 0

stdin: Hi, do you know how CC(C)(C)n1cc(-c2ccnc(NCCCNS(=O)(=O)c3ccccc3)c2)c(-c2ccccc2)n1 came out in this test?
stdout: label 0

stdin: Tell me the recorded outcome of this test for Cc1cc(NCc2cc(Nc3ccnc4cc(Cl)ccc34)ccc2F)nc(Cl)n1 .
stdout: label 0

stdin: Identify the outcome logged in this assay for the compound shown: CCCCn1c(=O)c2c(nc3n2CCCN3CCc2ccc(OCC(=O)NCCN(CC)CC)cc2)n(CCCC)c1=O
stdout: label 0

stdin: Identify the outcome logged in this assay for the compound shown: CC/C=C\CCC/C=C1/C(=O)C=C[C@@H]1C/C=C\CCCC(=O)O
stdout: label 1

stdin: Hey, what did the test say about O=c1c2c3c(sc2n2c(-c4cc(-c5ccccc5)nn4-c4ccccc4)nnc2n1Cc1ccccc1)CCCC3 ?
stdout: label 0

stdin: So what was the verdict on O=C(c1ccc(Nc2nccc(NCCCCNc3ccnc4cc(Cl)ccc34)n2)cc1)N1CCCCC1 in this test?
stdout: label 1

stdin: For this compound, state the assay outcome: Cc1ccc2[nH]c(=O)c3c(c2c1)OC(N)=C(C#N)C31c2cc(Br)ccc2-c2ccc(Br)cc21
stdout: label 0

stdin: Hi, do you know how CS(=O)c1cccc(-c2ccc3nc(N)n(-c4ccc(C(F)(F)F)cc4)c(=O)c3c2)c1 (centres undefined) came out in this test?
stdout: label 0

stdin: For CC1=CN2C(=O)C3C4=C(CCCC4)SC3N=C2CN1c1c(C)cccc1C (centres undefined) , what call appears in the results of this test?
stdout: label 0

stdin: Tell me the assay call for c1ccc2c(c1)nc(CN1CCOCC1)n1cc(N3CCCC3)nc21 please.
stdout: label 0

stdin: For COc1ccc(NC(=O)CSc2nnc(-c3cc(-c4ccc(S(N)(=O)=O)cc4)nc4ccccc34)n2-c2ccccc2)cc1 , which call appears in the assay record?
stdout: label 0

stdin: Please state the recorded outcome for this compound: COc1ccc(NC(=O)CSc2nnc(-c3cc(-c4ccccc4)nc4ccccc34)n2-c2ccccc2)cc1
stdout: label 0

stdin: GET /call?item= FC(F)(F)c1cc(Nc2ccc3cc(OCCCN4CCOCC4)ccc3n2)ccc1Cl returns the recorded outcome of this test.
stdout: label 0
